From: PubChem BioAssay (NCI)

system: UACC-62 melanoma; assay: NCI tumour cell line growth inhibition, 48 h; in the data active = GI50 below about 0.43 µM; inactive = the rest
Outcomes you can answer with include only these: T (active), F (inactive)

> print(dat)
                                   molecule  classification
1  COc1cc([C@H](C)c2ccc3ccccc3c2)cc(OC)c1OC               F
2  COc1ccc2c(c1)sc1nc(-c3ccccc3)c(-c3ccsc3)n12               F
3  O=c1ccn(C2OC(CO)C(O)C2O)c(=O)[nH]1 (stereo not drawn)               F
4  CCCCCCC/C=C/[C@H]1O[C@]23C(=O)C[C@@]4(C[C@@H](OC5OC(CO)C(O)C(O)C5O)C[C@@H]4[C@H]2C=C1C)OC3=O (stereo partly drawn)               F
5  O=C1c2cc(Br)ccc2-c2c1c1ccc([N+](=O)[O-])cc1c(=O)n2CCCCl               T
6  O=[N+]([O-])c1ccc2[nH]cc(-c3c4ccsc4cc4[nH]c5ccc([N+](=O)[O-])cc5c34)c2c1               F

Which outcome was assigned to c1ccc2c(c1)[I+]c1ccccc1-2 in this test?
F

Any idea what this test logged for CC(=O)Oc1cc(C)ccc1[C@]1(C)CC[C@H](C)/C1=C\Br ?
F

* * *

// reported TGI for each item listed
test system: SF-295 CNS; test: NCI tumour cell line growth inhibition, 48 h

Reference set (5 entries):
> print(dat)
                                   compound  obs.value
1  COc1cc(OC2OC(C)C(O)C(O)C2O)cc2oc(-c3ccc(O)cc3)c(CC=C(C)C)c(=O)c12 (stereo unspecified)   > 100 µM
2  NC(=O)CC(Nc1ncc2c(n1)-c1ccccc1OC2)C(=O)O (stereo unspecified)   > 100 µM
3  CC(C)=CC(C(O)c1ccccc1)S(=O)(=O)c1nccn1C (stereo unspecified)   > 100 µM
4  Cc1cc(/C=C2\SC(=Nc3ccccc3)N(C3CCCC3)C2=O)c(C)n1-c1ccc(Cl)cc1   > 100 µM
5       O=C(Nc1ccc(Cl)cc1)Nc1ccc(Cl)c(Cl)c1   > 100 µM

API: the following record is the query input.
Find the measured TGI: item Clc1nc(Oc2ccccc2)nc(-c2cn(-c3ccccc3)c3ccccc23)n1 , target or system SF-295 CNS.
> 61 µM

* * *

Catalogue of TGI readings, one per entry.
system: NCI-H23 lung; test: NCI tumour cell line growth inhibition, 48 h

> print(dat)
                                   molecule  study.target  recorded.metric  obs.value
1  CC1=CSC2=NC(c3ccc(Cl)c(Cl)c3)=CC(c3ccc(Cl)cc3)N12 (centres undefined)  NCI-H23 lung              TGI   > 100 µM
2    CCCCSc1n/c(=C\c2ccc(N(C)C)cc2)c2nnnn12  NCI-H23 lung              TGI   > 100 µM
3                     O=C(NCCO)c1ccc(Cl)cc1  NCI-H23 lung              TGI   > 100 µM
4  COP1(=O)CC2C(Cl)(Cl)C2(C)C1 (centres undefined)  NCI-H23 lung              TGI   > 100 µM
5  CN(C(=O)c1ccc(Cl)s1)C(=S)N(C)C(=O)c1ccc(Cl)s1  NCI-H23 lung              TGI    > 10 µM

Recorded TGI of CCOC(=O)C1=C(C)NC(=S)NC1c1cccc(O)c1 (centres undefined) , please.
> 100 µM

Entry N#CCCc1nc2ccc(Br)cc2c(=O)n1CCO : reported TGI = ?
> 100 µM

Tell me the measured TGI of CC1(C)C2CC(c3ccncc3)ON2C(C)(C)N1O (centres undefined) , please.
> 100 µM

Can you look up the measured TGI of O=C(N=Nc1ccccc1Br)NNc1ccccc1Br for me?
> 100 µM
